settings: 1 h, 10 μM
measure: Prodrug (%) remaining, Rat Plasma
Field: numeric (%). Do not append units.

Some entries whose results are on file:
molecule: CCC(C)C(=O)OC1=C[C@@H]2N(C)CC[C@]2(c2ccc(OC)c(OC)c2)CC1 (stereo partly drawn) [Compound 425]
measure unit: %
Prodrug (%) remaining, Rat Plasma: 0.0
--
molecule: COc1ccc([C@@]23CCC(OC(=O)c4cccc(C)c4C)=C[C@@H]2N(C)CC3)cc1OC [Compound 373]
measure unit: %
Prodrug (%) remaining, Rat Plasma: 26.8
--
molecule: CCCC(C)C(=O)OC1=C[C@@H]2N(C)CC[C@]2(c2ccc(OC)c(OC)c2)CC1 (stereo partly drawn) [Compound 402]
measure unit: %
Prodrug (%) remaining, Rat Plasma: 0.0
--
molecule: COc1ccc([C@@]23CCC(OC(=O)CCN)=C[C@@H]2N(C)CC3)cc1OC [Compound 397]
measure unit: %
Prodrug (%) remaining, Rat Plasma: 0.1

[Q] Read the entry CCC(C)(C)C(=O)OC1=C[C@@H]2N(C)CC[C@]2(c2ccc(OC)c(OC)c2)CC1 [Compound 428] and write its reported Prodrug (%) remaining, Rat Plasma.
[A] 41.7

[Q] Please give the documented Prodrug (%) remaining, Rat Plasma of CCCC(C)(C)C(=O)OC1=C[C@@H]2N(C)CC[C@]2(c2ccc(OC)c(OC)c2)CC1 [Compound 429]
[A] 71.9

[Q] Tell me its Prodrug (%) remaining, Rat Plasma given CCC(C)(CC)C(=O)OC1=C[C@@H]2N(C)CC[C@]2(c2ccc(OC)c(OC)c2)CC1 [Compound 430] as the entry.
[A] 97.1

[Q] For the molecule CCCC(CC)CC(=O)OC1=C[C@@H]2N(C)CC[C@]2(c2ccc(OC)c(OC)c2)CC1 (stereo partly drawn) [Compound 398] , give its reported Prodrug (%) remaining, Rat Plasma.
[A] 0.1
